Counter-ions that a name gives are not always drawn.
Each item that follows carries a reported melting point.

COMPOUND	melting point
O=c1[nH]c2ccccc2cc1-c1csc(NCCN2CCOCC2)n1 (as salt: hydrobromid) [Example 80, hydrobromide]	237 to 239 °C
O=c1[nH]c2ccccc2cc1-c1nc(-c2cccc([N+](=O)[O-])c2)cs1 [Example 114]	> 300 °C
CCN(CC)C(=O)c1cccc2[nH]c(=O)c(-c3csc(-c4ccncc4)n3)cc12 [Example 11]	210 °C (dec.)
CNc1nc(-c2cc3ccccc3[nH]c2=O)cs1 (as salt: hydrobromid) [Example 75, hydrobromide]	292 to 293 °C
O=c1[nH]c2ccccc2cc1-c1csc(-c2cccnc2)n1 [Example 2]	230 to 232 °C
CN(c1nc(-c2cc3ccccc3[nH]c2=O)cs1)S(=O)(=O)c1ccc(Br)cc1 [Example 8730]	280 to 282 °C
O=c1[nH]c2ccccc2cc1-c1csc(Nc2cccnc2)n1 (as salt: hydrobromid) [Example 68]	> 300 °C
CN(c1nc(-c2cc3ccccc3[nH]c2=O)cs1)S(=O)(=O)c1cn(C)cn1 [Example 8732]	> 300 °C
